Tested on: HOP-92 NSCLC
Assay: NCI tumour cell line growth inhibition, 48 h
observable: TGI

Measured TGI of COc1cc(/C=C2/SC(c3ccccc3)N(c3ccccc3)C2=O)cc(OC)c1OC (stereo not given) : > 100 µM

Measured TGI of Clc1ccc(C2=Nn3c(nnc3-c3cc(Cl)cc(Cl)c3Cl)SC2)cc1 : 65 µM

Measured TGI of Cc1cc(C)c2c(c1)CC1(Cc3c(C)ccc(C)c3C1=O)C2=O (stereo not given) : > 100 µM

Measured TGI of CN(CCO)c1nc(N)cc(=O)[nH]1 : > 100 µM

The record that follows has no TGI shown yet.
Measured TGI of COc1cc(Nc2ncc(F)c(Nc3ccc4c(n3)NC(=O)C(C)(C)O4)n2)cc(OC)c1OC : 4.85 µM
